- studySystem: Pim-2 (Homo sapiens (Human))
- assayInfo: Pim-2 kinase assay
- Type: biochemical
- testParameters: Km ATP concentration rather than 1 mM; read-out: Pim2 IC50 at Km ATP concentration
- Experimental: Pim-2 kinase assay-20 μL reactions were run in white 384 well polystyrene plates dotted with 0.8 μL compound/DMSO in the assay buffer (50 mM Tris, pH 7.5, 0.01% Tween-20, 5 mM MgCl2, 0.01% BSA, 5 mM DTT), containing 0.05 μM Fluorescein-labeled CREBtide peptide substrate (Invitrogen PV3508), 1 mM ATP, and 1 nM enzyme (Invitrogen PV3649) for 2 h at 25° C. […] After 30 min. incubation at room temperature, plates were read on a PHERAstar FS plate reader (BMG Labtech). […]
pIC50: −log10 of the molar value.
experimentalEndpoint: pIC50

INSERT INTO measurements (compoundstructurestring, experimentalresult) VALUES
  ('N[C@H]1CCCN(c2c(NC(=O)c3csc(-c4c(F)cccc4F)n3)cnc3[nH]ncc23)C1', '5.00 to 6.00');

###

Measured pIC50 of individual entries
- studySystem: Pim-1 (Homo sapiens (Human), UniProt P11309)
- Sequence (P11309 whole entry): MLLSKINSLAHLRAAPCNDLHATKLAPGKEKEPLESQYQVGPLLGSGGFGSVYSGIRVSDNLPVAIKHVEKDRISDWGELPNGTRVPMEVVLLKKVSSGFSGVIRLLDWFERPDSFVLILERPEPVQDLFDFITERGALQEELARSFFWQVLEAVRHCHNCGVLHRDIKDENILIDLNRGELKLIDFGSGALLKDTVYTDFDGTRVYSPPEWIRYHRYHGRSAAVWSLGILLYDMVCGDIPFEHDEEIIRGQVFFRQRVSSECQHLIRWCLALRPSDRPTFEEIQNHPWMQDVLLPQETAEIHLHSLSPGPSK
- assayInfo: Pim-1 kinase assay
- Assay type: biochemical
- testParameters: 1 mM ATP; read-out: Pim1 IC50
pIC50: −log10 of the molar value.
experimentalEndpoint: pIC50

INSERT INTO measurements (molecule, studysystem, experimentalresult) VALUES
  ('COc1ccc(F)c(-c2nc(C(=O)Nc3cnc4c(c3N3C[C@H](C)C[C@H](N)C3)CCO4)ccc2F)c1F', 'Pim-1 (Homo sapiens (Human), UniProt P11309)', '≥ 7.00'),
  ('N[C@H]1CCCN(c2c(NC(=O)c3csc(-c4c(F)cccc4F)n3)cnc3[nH]ncc23)C1', 'Pim-1 (Homo sapiens (Human), UniProt P11309)', '< 7.40'),
  ('C[C@@H]1C[C@H](N)CN(c2c(NC(=O)c3nc(-c4c(F)cccc4F)c(F)cc3N)cnc3c2CCO3)C1', 'Pim-1 (Homo sapiens (Human), UniProt P11309)', '≥ 7.00'),
  ('N[C@H]1CCCN(c2c(NC(=O)c3ccc(F)c(-c4c(F)cccc4F)n3)cnc3c2CCO3)C1', 'Pim-1 (Homo sapiens (Human), UniProt P11309)', '≥ 7.00'),
  ('C[C@@H]1C[C@H](N)CN(c2c(NC(=O)c3ccc(F)c(-c4c(F)cccc4F)n3)cnc3c2CCC3O)C1 (single isomer, unassigned) [45 (Diastereoisomer 2)]', 'Pim-1 (Homo sapiens (Human), UniProt P11309)', '≥ 7.00'),
  ('COCc1cc(F)c(-c2nc(C(=O)Nc3cnc4c(c3N3C[C@@H](N)[C@H](O)[C@@H](C)C3)CCC4O)ccc2F)c(F)c1 (single isomer, unassigned) [66 (Diastereoisomer 2)]', 'Pim-1 (Homo sapiens (Human), UniProt P11309)', '≥ 7.00');

###

- studySystem: Pim-2 (Homo sapiens (Human), UniProt Q9P1W9)
- Sequence (Q9P1W9 whole entry): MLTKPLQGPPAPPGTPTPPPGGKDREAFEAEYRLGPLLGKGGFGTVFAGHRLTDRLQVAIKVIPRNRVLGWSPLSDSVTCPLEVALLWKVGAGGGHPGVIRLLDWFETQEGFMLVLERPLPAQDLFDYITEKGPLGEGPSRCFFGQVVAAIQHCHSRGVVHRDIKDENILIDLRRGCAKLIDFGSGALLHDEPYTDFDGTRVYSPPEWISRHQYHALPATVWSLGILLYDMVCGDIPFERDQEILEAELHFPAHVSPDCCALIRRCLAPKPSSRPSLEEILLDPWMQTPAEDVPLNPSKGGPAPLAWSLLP
- assayInfo: Pim-2 kinase assay
- Type: biochemical
- testParameters: 1 mM ATP; read-out: Pim2 IC50
pIC50: −log10 of the molar value.
experimentalEndpoint: pIC50

INSERT INTO results (molecule, experimentalendpoint, experimentalresult) VALUES
  ('N[C@H]1CCCN(c2c(NC(=O)c3ccc(F)c(-c4c(F)cccc4F)n3)cnc3c2CCCN3)C1', 'pIC50', '6.00 to 7.00'),
  ('C[C@H]1CN(c2c(NC(=O)c3nc(-c4c(F)cccc4F)sc3N)cnc3c2CCC3)C[C@@H](N)[C@@H]1O', 'pIC50', '≥ 7.00'),
  ('C[C@H]1CN(c2c(NC(=O)c3nc(-c4c(F)cccc4F)c(F)cc3N)cnc3c2CCC3O)C[C@@H](N)[C@@H]1O (single isomer, unassigned) [48 (Diastereoisomer 2)]', 'pIC50', '≥ 7.00'),
  ('C[C@H]1CN(c2c(NC(=O)c3ccc(F)c(-c4c(F)cccc4F)n3)cnc3c2CCC3O)C[C@@H](N)[C@@H]1O (single isomer, unassigned) [37 (Diastereoisomer 1)]', 'pIC50', '≥ 7.00'),
  ('COc1ccc(F)c(-c2nc(C(=O)Nc3cnc4c(c3N3CCC[C@H](N)C3)CCC4O)c(N)s2)c1F (single isomer, unassigned) [53 (Diastereoisomer 1)]', 'pIC50', '≥ 7.00'),
  ('Nc1sc(-c2c(F)cccc2F)nc1C(=O)Nc1cnc2c(c1N1CCC[C@H](N)C1)CCC2', 'pIC50', '≥ 7.00');

###

- studySystem: Pim-3 (Homo sapiens (Human))
experimentalEndpoint: IC50

INSERT INTO measurements (molecule, experimentalresult) VALUES
  ('N[C@@H]1CN(c2c(NC(=O)c3ccc(F)c(-c4c(F)cccc4F)n3)cnc3c2CCC3O)C[C@H](C2CC2)[C@H]1O (single isomer, unassigned) [68 (Diastereoisomer 2)]', '≤ 100 nM'),
  ('C[C@H]1CN(c2c(NC(=O)c3ccc(F)c(-c4c(F)cccc4F)n3)cnc3c2CCC3O)C[C@@H](N)[C@@H]1O (single isomer, unassigned) [37 (Diastereoisomer 2)]', '≤ 100 nM'),
  ('N#CC1CCc2c1ncc(NC(=O)c1nc(-c3c(F)cccc3F)sc1N)c2N1CCC[C@H](N)C1 (single isomer, unassigned) [18 (Diastereoisomer 1)]', '≤ 100 nM'),
  ('Nc1sc(-c2c(F)cccc2F)nc1C(=O)Nc1cnc2[nH]ccc2c1N1CCC[C@H](N)C1', '≤ 100 nM'),
  ('N[C@H]1CCCN(c2c(NC(=O)c3ccc(F)c(-c4c(F)cccc4F)n3)cnc3c2CCC3)C1', '≤ 100 nM'),
  ('Nc1sc(-c2c(F)cccc2F)nc1C(=O)Nc1cnc2c(c1N1CCC[C@H](N)C1)CCC2=O', '≤ 100 nM');

###

- studySystem: Pim-1 (Homo sapiens (Human))
experimentalEndpoint: IC50

INSERT INTO results (molecule, studysystem, experimentalendpoint, experimentalresult) VALUES
  ('Nc1ncc(-c2c(F)cccc2F)nc1C(=O)Nc1cnc2c(c1N1CCC[C@H](N)C1)CCC2O (single isomer, unassigned) [62 (Diastereoisomer 2)]', 'Pim-1 (Homo sapiens (Human))', 'IC50', '≤ 0.1 µM'),
  ('C[C@H]1CN(c2c(NC(=O)c3ccc(F)c(-c4c(F)cccc4F)n3)cnc3c2CCO3)C[C@@H](N)[C@@H]1O', 'Pim-1 (Homo sapiens (Human))', 'IC50', '≤ 0.1 µM'),
  ('C[C@H]1CN(c2c(NC(=O)c3ccc(F)c(-c4c(F)cccc4F)n3)cnc3c2CCC3O)C[C@@H](N)C1(C)O (single isomer, unassigned) [63 (Diastereoisomer 4)]', 'Pim-1 (Homo sapiens (Human))', 'IC50', '≤ 0.1 µM');

###

# maps each entry to its IC50
- studySystem: UniProt:Q9P1W9
- assayInfo: Pim-2 kinase assay
- Format: biochemical
- testParameters: 1 mM ATP; read-out: Pim2 IC50
experimentalEndpoint: IC50

INSERT INTO assay_data (compound, experimentalresult) VALUES
  ('CC1(N)CCCN(c2c(NC(=O)c3nc(-c4c(F)cccc4F)sc3N)cnc3c2CCC3)C1 (centres unmarked)', '100 to 1000 nM'),
  ('C[C@@H]1C[C@H](N)CN(c2c(NC(=O)c3nc(-c4c(F)cccc4F)c(F)cc3N)cnc3c2CCC3O)C1 (single isomer, unassigned) [46 (Diastereoisomer 2)]', '≤ 100 nM'),
  ('CCOc1cc(F)c(-c2nc(C(=O)Nc3cnc4c(c3N3C[C@@H](N)[C@H](O)[C@@H](C)C3)CCC4O)ccc2F)c(F)c1 (single isomer, unassigned) [51 (Diastereoisomer 2)]', '≤ 100 nM'),
  ('CS(=O)(=O)c1cc(F)c(-c2nc(C(=O)Nc3cnc4c(c3N3CCC[C@H](N)C3)CCC4O)ccc2F)c(F)c1 (single isomer, unassigned) [61 (Diastereoisomer 1)]', '> 2000 nM'),
  ('Nc1sc(-c2c(F)cccc2F)nc1C(=O)Nc1cnc2c(c1N1C[C@@H](N)C[C@@H](C(F)(F)F)C1)CCO2', '≤ 100 nM'),
  ('N[C@H]1CCCN(c2c(NC(=O)c3csc(-c4c(F)cccc4F)n3)cnc3ccccc23)C1', '> 2000 nM'),
  ('N[C@@H]1CN(c2c(NC(=O)c3ccc(F)c(-c4c(F)cccc4F)n3)cnc3c2CCC3O)C[C@H](C2CC2)[C@H]1O (single isomer, unassigned) [68 (Diastereoisomer 2)]', '≤ 100 nM'),
  ('N#CC1CCc2c1ncc(NC(=O)c1nc(-c3c(F)cccc3F)sc1N)c2N1CCC[C@H](N)C1 (single isomer, unassigned) [18 (Diastereoisomer 2)]', '100 to 1000 nM'),
  ('COc1ccc(F)c(-c2nc(C(=O)Nc3cnc4c(c3N3CCC[C@H](N)C3)CCC4O)ccc2F)c1F (single isomer, unassigned) [55 (Diastereoisomer 2)]', '≤ 100 nM'),
  ('N[C@H]1CCCN(c2c(NC(=O)c3csc(-c4c(F)cccc4F)n3)cnc3c2CCC3O)C1 (single isomer, unassigned) [16 (Diastereoisomer 1)]', '> 2000 nM'),
  ('C[C@H]1CN(c2c(NC(=O)c3nc(-c4c(F)cccc4F)sc3N)cnc3c2CCC3O)C[C@@H](N)[C@@H]1O (single isomer, unassigned) [49 (Diastereoisomer 1)]', '≤ 100 nM'),
  ('C[C@@H]1C[C@H](N)CN(c2c(NC(=O)c3nc(-c4c(F)cccc4F)sc3N)cnc3c2CCO3)C1', '≤ 100 nM'),
  ('Nc1sc(-c2c(F)cccc2F)nc1C(=O)Nc1cnc2ccsc2c1N1CC[C@H](O)[C@H](N)C1 (single isomer, unassigned)', '100 to 1000 nM'),
  ('CS(=O)(=O)c1cc(F)c(-c2nc(C(=O)Nc3cnc4c(c3N3CCC[C@H](N)C3)CCC4O)ccc2F)c(F)c1 (single isomer, unassigned) [61 (Diastereoisomer 2)]', '100 to 1000 nM'),
  ('CSc1cc(F)c(-c2nc(C(=O)Nc3cnc4c(c3N3CCC[C@H](N)C3)CCC4O)ccc2F)c(F)c1 (single isomer, unassigned) [58 (Diastereoisomer 1)]', '100 to 1000 nM'),
  ('COc1ccc(F)c(-c2nc(C(=O)Nc3cnc4c(c3N3C[C@H](C)C[C@H](N)C3)CCC4O)c(N)s2)c1F (single isomer, unassigned) [54 (Diastereoisomer 1)]', '≤ 100 nM'),
  ('C[C@H]1CN(c2c(NC(=O)c3ccc(F)c(-c4c(F)cccc4F)n3)cnc3c2CCC3O)C[C@@H](N)[C@@H]1O (single isomer, unassigned) [37 (Diastereoisomer 2)]', '≤ 100 nM'),
  ('C[C@H]1CN(c2c(NC(=O)c3nc(-c4c(F)cccc4F)sc3N)cnc3c2CCC3O)C[C@@H](N)[C@@H]1O (single isomer, unassigned) [49 (Diastereoisomer 2)]', '≤ 100 nM'),
  ('CC1(O)CCc2c1ncc(NC(=O)c1nc(-c3c(F)cccc3F)sc1N)c2N1CCC[C@H](N)C1 (single isomer, unassigned) [19 (Diastereoisomer 1)]', '> 2000 nM'),
  ('N[C@H]1CCCN(c2c(NC(=O)c3ccc(F)c(-c4c(F)cccc4F)n3)cnc3c2CCC3O)C1 (single isomer, unassigned) [22 (Diastereoisomer 2)]', '≤ 100 nM'),
  ('C[C@H]1CN(c2c(NC(=O)c3nc(-c4c(F)cccc4F)c(F)cc3N)cnc3c2CCO3)C[C@@H](N)[C@@H]1O', '≤ 100 nM'),
  ('N[C@H]1CCCN(c2c(NC(=O)c3csc(-c4c(F)cccc4F)n3)cnc3c2CCC3O)C1 (single isomer, unassigned) [16 (Diastereoisomer 2)]', '> 2000 nM'),
  ('C[C@@H]1C[C@H](N)CN(c2c(NC(=O)c3nc(-c4c(F)cccc4F)c(F)cc3N)cnc3c2CCO3)C1', '≤ 100 nM');
